# assay: chemical genetic growth profiling, strain panel (AID 1159580);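 further: tested at 20 µM; growth read once vehicle control cultures reached saturation at 30 °C; 1 = growth at the plate median or of vehicle wells; lower values mean less growth of the strain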
# measurement.setup: S. cerevisiae deletion strains, growth OD, locus YBR023C, strain chs3, stronger effect = lower value
The whole screen tested about 5,500 compounds, of which about 2,000 (36%) were called active. Roughly 18% stayed inconclusive and do not appear here. This is one part of the list.
The following molecules are listed with their measured normalized growth values.

>>> df
                                   molecule            measure          measured
0  O=S1OCC2C(CO1)C1(Cl)C(Cl)=C(Cl)C2(Cl)C1(Cl)Cl (stereo not given)  normalized growth  0.987 (inactive)

Let us move to another entry and its normalized growth.
Entry CC1=CC2C(CC1=O)C(C)=CCC2C(C)C (stereo not given) : reported normalized growth = ?
0.992 (inactive)

----------
# assay: chemical genetic growth profiling, strain panel (AID 1159580);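 further: tested at 20 µM; growth read once vehicle control cultures reached saturation at 30 °C; 1 = growth at the plate median or of vehicle wells; lower values mean less growth of the strain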
# measurement.setup: S. cerevisiae deletion strains, growth OD, locus YOL006C, strain TOP1, stronger effect = lower value
The whole screen tested about 5,500 compounds, of which about 2,000 (36%) were called active. Not shown: some 18% with an inconclusive outcome. Some of the results follow.
measure: normalized growth
Number only, no unit.

>>> print(df.to_string())
                                   compound  measured
0             O=C(Cn1ccnc1[N+](=O)[O-])NCCO      1.06
1  C=CCSCC1Nc2cc(Cl)c(S(N)(=O)=O)cc2S(=O)(=O)N1 (stereo unspecified)      1.03
2  C#CCCCCCCCCCCCC(=O)CC(O)COC(C)=O (stereo unspecified)     0.637
3  CC[C@H](C)C(=O)O[C@H]1C[C@@H](C)C=C2C=C[C@H](C)[C@H](CC[C@@H]3C[C@@H](O)CC(=O)O3)[C@H]21     0.953
4  CC1(C)C2(Cl)C(Cl)C(Cl)C(Cl)(C(Cl)Cl)C1(Cl)C2Cl (stereo unspecified)     0.867
5                             Oc1ccc(Cl)cc1      1.03
6                      O=c1cc[nH]c(=S)[nH]1       1.1
7  O=C1CC2OCC=C3CN4CC[C@]56c7ccccc7N1C5[C@H]2[C@H]3CC46 (stereo partly specified)      1.03

Entry "O=C(O)CN1C(=O)c2cccc3cccc(c23)C1=O" : reported normalized growth = ?
1.08

Entry "CC(C)[C@@H]1CC[C@@H](C)C[C@H]1O" : reported normalized growth = ?
0.977

Entry NS(=O)(=O)c1cc2c(cc1Cl)NC(C(Cl)Cl)NS2(=O)=O (stereo unspecified) : reported normalized growth = ?
1.02

Entry C#CCCCCCCCCCCCC(O)CC(O)COC(C)=O (stereo unspecified) : reported normalized growth = ?
0.85

Entry "O=C(CSCc1cccc2ccccc12)NNC(=S)Nc1ccccc1Cl" : reported normalized growth = ?
0.365

Entry "Cc1cccc(C)c1NC1=NCCCS1" : reported normalized growth = ?
1.08

Entry "COc1ccc(CCN2CCC(Nc3nc4ccccc4n3Cc3ccc(F)cc3)CC2)cc1" : reported normalized growth = ?
0.759

Entry "O=C(O)c1ccccc1-c1c2cc(Br)c(=O)cc-2oc2[c]([Hg])c(O)c(Br)cc12" : reported normalized growth = ?
0.153

Entry "CCN(CC)C(=O)c1cccc(C)c1" : reported normalized growth = ?
1.03

Entry "Nc1ccc(N=Nc2ccccc2)c(N)n1" : reported normalized growth = ?
0.332

Entry C/C1=C\CCC(=O)C2CC(C)(C)C2CC1 (stereo unspecified) : reported normalized growth = ?
1.1

Entry "COc1ccc2c(c1)CCC(c1ccccc1)=C2c1ccc(OCCN2CCCC2)cc1" : reported normalized growth = ?
0.323

Entry C=C1CCC2C(CC2(C)C)C(=C)CC/C1=N\O (stereo unspecified) : reported normalized growth = ?
0.725

Entry CC12NC(=O)NC1(C)NC(=O)N2 (stereo unspecified) : reported normalized growth = ?
1.09

Entry "Cc1cccc2c1N(C(=S)Nc1ccccc1Cl)CCC2" : reported normalized growth = ?
0.508

Entry "OCc1ccccc1O" : reported normalized growth = ?
1.06

Entry CCCCN1CCCCC1C(=O)Nc1c(C)cccc1C (stereo unspecified) : reported normalized growth = ?
1.02

Entry OC(CN1CCN(c2nc3ccc(Cl)cc3s2)CC1)CN1CCCN(c2ncc(C(F)(F)F)cc2Cl)CC1 (stereo unspecified) : reported normalized growth = ?
0.0656

Entry CC(=O)OCC(OC(C)=O)C(OC(C)=O)C(OC(C)=O)C(OC(C)=O)C(COC(C)=O)OC(C)=O (stereo unspecified) : reported normalized growth = ?
1.27

Entry "CN1C(C(=O)Nc2ccccn2)=C(O)c2ccccc2S1(=O)=O" : reported normalized growth = ?
0.999

Entry "COC(=O)c1sccc1NC(=O)C1CC1" : reported normalized growth = ?
0.982

Entry CC1OC1P(=O)(O)O (stereo unspecified) : reported normalized growth = ?
1.02

Entry "Cc1cc(NC(=O)C2=C(O)c3ccccc3S(=O)(=O)N2C)no1" : reported normalized growth = ?
1.03

Entry "Oc1ccc(Cl)cc1Cc1cc(Cl)ccc1O" : reported normalized growth = ?
0.0992
